Values compiled from patent US12534469B2.

Molecular target: FLT3 (Homo sapiens)
Construct: purchased Reaction Biology (RBC HotSpot Kinase Assay)
Assay: RBC HotSpot Kinase Assay, FLT3
Type: biochemical
measurement.type: IC50 (nM)
Numbers only, in nM.

compound="FC(F)COc1cnn2c(-c3cccc(N[C@H]4CNC[C@@H]4F)n3)cnc2c1 [Compound 114]" measurement_type=IC50 recorded_value=3

Proceeding to the next compound to report its IC50.
The compound listed as COc1cc2ncc(-c3cccc(N[C@@H]4CCCNC4)n3)n2nc1C(C)(O)C(F)(F)F (single isomer, unassigned) [Compound 132] shows IC50 equal to 5

* * *

Target: FLT3 R834Q (Homo sapiens, UniProt P36888, R834Q)
Construct: purchased DiscoverX (KINOMEscan); host or cells: E. coli (T7 phage) or HEK-293
Experiment: DiscoverX KINOMEscan competition binding assay, FLT3 R834Q
measurement.type: Kd (nM)
One number for each entry, in nM.

molecule=COc1cc2ncc(-c3cccc(N[C@H]4CNCC[C@@H]4F)n3)n2nc1C1CC1 measurement_type=Kd value_unit=nM recorded_value=0.61
molecule=COc1cc2ncc(-c3cccc(N[C@H]4CNC[C@@H]4F)n3)n2nc1C1CC1 measurement_type=Kd value_unit=nM recorded_value=1.6

Proceeding to the next molecule to report its Kd.
The molecule listed as `COc1cc2ncc(-c3cccc(N[C@@H]4CCNC4)n3)n2nc1C1CC1` shows Kd equal to 0.8

* * *

Target: IRAK4 (Homo sapiens)
Test: RBC HotSpot Kinase Assay, IRAK4
Assay type: biochemical
Set-up: purchased Reaction Biology (RBC HotSpot Kinase Assay)
Text: This assay uses the isolated kinase enzyme. This assay is very useful for determining competition of the inhibitor for ATP and/or substrates and for measuring the kinetics of enzyme inhibition. […] Unlike kinase binding assays that measure competition for ATP, the HotSpot Kinase Assay is a functional assay that measures catalytic activity; as such it measures relative functional potency regardless of the mechanism of enzyme inhibition. […]
For each of the molecules below, state its IC50.
Numbers only, in nM.

Worked cases, IC50 given:
molecule="F[C@H]1CNC[C@@H]1Nc1cccc(-c2cnc3ccc(-c4cnn(C5CC5)c4)nn23)n1 [Compound 3]" measurement_type=IC50 recorded_value=71
molecule="FC(F)(F)[C@H]1CNC[C@@H]1Nc1cccc(-c2cnc3ccc(-c4cnn(C5CC5)c4)nn23)n1 [Compound 13]" measurement_type=IC50 recorded_value=106
molecule="c1cc(NC2CC3(CNC3)C2)nc(-c2cnc3ccc(-c4cnn(C5CCOCC5)c4)nn23)c1 [Compound 34]" measurement_type=IC50 recorded_value=5070
molecule="CC(C)Oc1cnn2c(-c3cccc(N[C@H]4CNC[C@@H]4F)n3)cnc2c1 [Compound 115]" measurement_type=IC50 recorded_value=323
molecule="c1cc(NC2CCC3(CNC3)C2)nc(-c2cnc3ccc(-c4cnn5ccccc45)nn23)c1 (stereo not shown) [Compound 63]" measurement_type=IC50 recorded_value=28
molecule="COc1cc2ncc(-c3cc(F)cc(N[C@H]4CNCC[C@@H]4F)n3)n2nc1C1CC1 [Compound 105]" measurement_type=IC50 recorded_value=7
molecule="c1cc(NC2CCC3(CNC3)C2)nc(-c2cnc3ccc(-c4cn[nH]c4)nn23)c1 (stereo not shown) [Compound 45]" measurement_type=IC50 recorded_value=8
molecule="COc1cc2ncc(-c3cccc(N[C@H]4CNCC[C@@H]4F)n3)n2nc1C(F)F [Compound 118]" measurement_type=IC50 recorded_value=2

Please look at the items below and tell me IC50 for each one, in order.
1. CC1(C)Cc2c(-c3ccc4ncc(-c5cccc(NC6CNCC6(F)F)n5)n4n3)cnn2C1 (stereo not shown) [Compound 60]
2. c1cc(NC2CC3(CCNC3)C2)nc(-c2cnc3ccc(-c4cnn5ccccc45)nn23)c1 (stereo not shown) [Compound 62]
3. COc1cc2ncc(-c3cccc(N[C@@H]4CCNC4)n3)n2nc1C1CC1 [Compound 97]
4. FC1(F)CNCC1Nc1cccc(-c2cnc3ccc(-c4cnn5c4CCCC5)nn23)n1 (stereo not shown) [Compound 59]
5. F[C@@H]1CNCC[C@H]1Nc1cccc(-c2cnc3ccc(C4CC4)nn23)n1 [Compound 73]
6. FC(F)n1cc(-c2ccc3ncc(-c4cccc(N[C@H]5CNC[C@@H]5F)n4)n3n2)cn1 [Compound 2]
7. Cn1cc(-c2ccc3ncc(-c4cccc(NC5CCNC5)n4)n3n2)cn1 (stereo not shown) [Compound 30]

[4, 16, 2, 12, 292, 115, 104]

The molecule listed as COc1cc2ncc(-c3cccc(N[C@H]4CNCC[C@@H]4F)n3)n2nc1-c1cnn(C)c1 [Compound 122] shows IC50 equal to 37

* * *

Molecular target: FLT3 ITD (Homo sapiens, UniProt P36888, ITD)
Test: DiscoverX KINOMEscan competition binding assay, FLT3 ITD
measurement.type: Kd (nM)
One number for each entry, in nM.

The molecule listed as COc1cc2ncc(-c3cccc(N[C@H]4CNC[C@@H]4F)n3)n2nc1C1CC1 [Compound 96] shows Kd equal to 1

* * *

Tested on: MOLM14 F691L cells
Test: MOLM14 F691L cell viability assay (Cell Titer Glo)
Type: cell-based
Conditions: Homo sapiens, MOLM-14, 48 h
measurement.type: IC50 (nM)
Answers are plain numbers, in nM.

Worked cases, IC50 given:
compound="COc1cc2ncc(-c3nc(N[C@H]4CNCC[C@@H]4F)c(F)cc3F)n2nc1C1CC1 [Compound 108]" recorded_value=29
compound="COc1cc2ncc(-c3cccc(N[C@H]4CNCC[C@@H]4F)n3)n2nc1C1CC1 [Compound 102]" recorded_value=388
compound="COc1cc2ncc(-c3cccc(N[C@@H]4CCCNC4)n3)n2nc1C1CC1 [Compound 101]" recorded_value=596

Please look at the items below and tell me IC50 for each one, in order.
1. COc1cc2ncc(-c3cccc(N[C@H]4CNCC[C@@H]4F)n3)n2nc1-c1cnn(C(F)F)c1 [Compound 129]
2. COc1cc2ncc(-c3cc(F)cc(N[C@H]4CNC[C@@H]4F)n3)n2nc1C1CC1 [Compound 103]

1. 2170
2. 1450

* * *

Molecular target: UniProt Q9NWZ3
Sequence (Q9NWZ3 1-460): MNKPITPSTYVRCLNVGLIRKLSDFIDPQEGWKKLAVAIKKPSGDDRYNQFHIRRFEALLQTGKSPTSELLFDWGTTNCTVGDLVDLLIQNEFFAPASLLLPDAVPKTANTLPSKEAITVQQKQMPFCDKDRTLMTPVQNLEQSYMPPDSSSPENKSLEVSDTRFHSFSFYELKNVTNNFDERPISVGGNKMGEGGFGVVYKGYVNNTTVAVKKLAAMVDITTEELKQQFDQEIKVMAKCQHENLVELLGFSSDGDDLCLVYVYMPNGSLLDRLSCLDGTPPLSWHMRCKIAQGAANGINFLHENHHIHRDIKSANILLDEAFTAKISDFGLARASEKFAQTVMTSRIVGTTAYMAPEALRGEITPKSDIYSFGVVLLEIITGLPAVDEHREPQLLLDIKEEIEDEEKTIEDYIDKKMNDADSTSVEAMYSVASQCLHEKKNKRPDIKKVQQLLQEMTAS
Test: RBC HotSpot Kinase Assay, IRAK4
Format: biochemical
Parameters: purchased Reaction Biology (RBC HotSpot Kinase Assay)
pIC50: −log10 of the molar value.
Label not fulfilled if pIC50 falls below 6; label fulfilled in every other case.

Below are worked cases with known answers.
molecule=COc1cc2ncc(-c3cccc(N[C@H]4CNC[C@@H]4F)n3)n2nc1-c1cn[nH]c1 answer_label=fulfilled
molecule=F[C@H]1CNC[C@@H]1Nc1cccc(-c2cnc3cccnn23)n1 answer_label=fulfilled
molecule=COc1cc2ncc(-c3cccc(N[C@H]4CNC[C@@H]4F)n3)n2nc1C1CC1 answer_label=fulfilled
molecule="c1ccc(-n2cc(-c3ccc4ncc(-c5cccc(NC6CCC7(CNC7)C6)n5)n4n3)cn2)cc1 (centres unmarked)" answer_label="not fulfilled"
molecule="c1ccc(-n2cc(-c3ccc4ncc(-c5cccc(NC6CCNC6)n5)n4n3)cn2)cc1 (centres unmarked)" answer_label="not fulfilled"

Does FC(F)n1cc(-c2ccc3ncc(-c4cccc(NC5CNCC5(F)F)n4)n3n2)cn1 (centres unmarked) have a reported pIC50 of at least 6? fulfilled

Does `F[C@H]1CNC[C@@H]1Nc1cccc(-c2cnc3ccc(C(F)(F)F)nn23)n1` have a reported pIC50 of at least 6? fulfilled

Does `c1ccc(-n2cc(-c3ccc4ncc(-c5cccc(NC6CC7(CNC7)C6)n5)n4n3)cn2)cc1` have a reported pIC50 of at least 6? not fulfilled

* * *

Target: UniProt:Q9NWZ3
Assay: Reaction Biology NanoBRET target engagement assay, IRAK4
Type: cell-based
Settings: transfected HEK-293 cells
measurement.type: IC50 (nM)
One number for each entry, in nM.

Worked cases, IC50 given:
molecule=COc1cc2ncc(-c3nc(N[C@@H]4CCCNC4)c(F)cc3F)n2nc1C(C)(C)O value_unit=nM recorded_value=30
molecule=COc1cc2ncc(-c3nc(N[C@H]4CNC[C@@H]4F)c(F)cc3F)n2nc1C(C)(C)O value_unit=nM recorded_value=7
molecule=COc1cc2ncc(-c3nc(N[C@H]4CNCC[C@@H]4F)c(F)cc3F)n2nc1C(C)(C)O value_unit=nM recorded_value=15

Please look at the items below and tell me IC50 for each one, in order.
1. COc1cc2ncc(-c3cccc(N[C@H]4CNC[C@@H]4F)n3)n2nc1C1CC1
2. COc1cc2ncc(-c3cccc(N[C@H]4CNC[C@@H]4C(F)(F)F)n3)n2nc1C1CC1
3. F[C@H]1CNC[C@@H]1Nc1cccc(-c2cnc3ccc(-c4cnn5ccccc45)nn23)n1

[2, 3, 54]

The compound listed as `COc1cc2ncc(-c3cccc(N[C@H]4CNCC[C@@H]4F)n3)n2nc1C1CC1` shows IC50 equal to 2
